Reference source: ChEMBL document CHEMBL4393725

ASSAY SYSTEM: Alpha glucosidase (Homo sapiens, UniProt O43451+P10253+P14410+Q2M2H8)
ASSAY SUMMARY: Inhibition of alpha-glucosidase (unknown origin) using PNP glucoside as substrate preincubated for 30 mins followed by substrate addition further incubated for 1 min by spectrophotometry
Format: protein assay
So I've got a bunch of compounds here, and I need their IC50 values.
Express the result in µM but write the number alone.

-- ask Please give the measured IC50 for this compound: O=C(Cn1cc(COc2cc(O)c3c(=O)c4ccc(O)cc4oc3c2)nn1)Nc1ccc(O)c(O)c1
-- reply 6.13

-- ask Moving on to O=C(Cn1cc(COc2cc(O)c3c(=O)c4cc(O)ccc4oc3c2)nn1)Nc1ccc(O)c(O)c1
-- reply 7.06

-- ask Then what about the compound COc1ccc(NC(=O)Cn2cc(COc3cc(O)c4c(=O)c5cc(Br)ccc5oc4c3)nn2)c(OC)c1 ?
-- reply 3.07

###

System: HepG2 (Homo sapiens)
ASSAY SUMMARY: Cytotoxicity against human HepG2 cells assessed as effect on cell survival at 0.625 to 2.5 uM incubated for 44 hrs by MTT assay
RECORDED CONDITIONS: HepG2, 44 h

CHEMICAL STRUCTURE: O=C(Cn1cc(COc2cc(O)c3c(=O)c4ccc(Br)cc4oc3c2)nn1)Nc1ccc(O)c(O)c1
Activity: Non-Toxic

CHEMICAL STRUCTURE: COc1ccc(NC(=O)Cn2cc(COc3cc(OC(C)=O)c4c(=O)c5ccc(Br)cc5oc4c3)nn2)c(OC)c1
Activity: Non-Toxic

CHEMICAL STRUCTURE: COc1ccc(NC(=O)Cn2cc(COc3cc(O)c4c(=O)c5ccc(Br)cc5oc4c3)nn2)c(OC)c1
Activity: Non-Toxic

###

ASSAY SYSTEM: Alpha glucosidase (Homo sapiens, UniProt O43451+P10253+P14410+Q2M2H8)
ASSAY SUMMARY: Inhibition of alpha-glucosidase (unknown origin) using PNP glucoside as substrate preincubated for 30 mins followed by substrate addition further incubated for 1 min by spectrophotometry
Format: protein assay
# fulfilled = IC50 below 10 µM (exclusive); not fulfilled = IC50 at/above 10 µM

-- ask Dear colleague, could you confirm whether IC50 of O=C(Cn1cc(COc2cc(O)c3c(=O)c4cc(Br)ccc4oc3c2)nn1)Nc1ccc(O)c(O)c1 falls below 10 µM? Thanks.
-- reply fulfilled

-- ask Ok, now COc1ccc(NC(=O)Cn2cc(COc3cc(OC(C)=O)c4c(=O)c5cc(Br)ccc5oc4c3)nn2)cc1OC
-- reply not fulfilled

-- ask Repeat for the following compound: COc1ccc(NC(=O)Cn2cc(COc3cc(OC(C)=O)c4c(=O)c5ccc(OC)cc5oc4c3)nn2)c(OC)c1
-- reply not fulfilled

-- ask Now consider COc1ccc(NC(=O)Cn2cc(COc3cc(O)c4c(=O)c5ccc(OC)cc5oc4c3)nn2)c(OC)c1 .
-- reply fulfilled

-- ask Query O=C(Cn1cc(COc2cc(O)c3c(=O)c4ccc(Br)cc4oc3c2)nn1)Nc1ccc(O)cc1O next
-- reply fulfilled

-- ask And what about the compound O=C(Cn1cc(COc2cc(O)c3c(=O)c4ccc(Br)cc4oc3c2)nn1)Nc1ccc(O)c(O)c1 ?
-- reply fulfilled

-- ask # iterate: COc1ccc(NC(=O)Cn2cc(COc3cc(OC(C)=O)c4c(=O)c5ccc(Br)cc5oc4c3)nn2)c(OC)c1
-- reply not fulfilled

-- ask Try this compound next: COc1ccc(NC(=O)Cn2cc(COc3cc(OC(C)=O)c4c(=O)c5cc(Br)ccc5oc4c3)nn2)c(OC)c1
-- reply not fulfilled
